# experimentalTarget: JARID1B (Homo sapiens, UniProt Q9UGL1)
# Construct: The FLAG tagged full length JARID1B enzyme was expressed in Sf21 insect cells using FLAG-JARID1B baculoviruses; FLAG (N); made in house; host or cells: Sf21 insect cells (baculovirus)
# Sequence (Q9UGL1 whole entry): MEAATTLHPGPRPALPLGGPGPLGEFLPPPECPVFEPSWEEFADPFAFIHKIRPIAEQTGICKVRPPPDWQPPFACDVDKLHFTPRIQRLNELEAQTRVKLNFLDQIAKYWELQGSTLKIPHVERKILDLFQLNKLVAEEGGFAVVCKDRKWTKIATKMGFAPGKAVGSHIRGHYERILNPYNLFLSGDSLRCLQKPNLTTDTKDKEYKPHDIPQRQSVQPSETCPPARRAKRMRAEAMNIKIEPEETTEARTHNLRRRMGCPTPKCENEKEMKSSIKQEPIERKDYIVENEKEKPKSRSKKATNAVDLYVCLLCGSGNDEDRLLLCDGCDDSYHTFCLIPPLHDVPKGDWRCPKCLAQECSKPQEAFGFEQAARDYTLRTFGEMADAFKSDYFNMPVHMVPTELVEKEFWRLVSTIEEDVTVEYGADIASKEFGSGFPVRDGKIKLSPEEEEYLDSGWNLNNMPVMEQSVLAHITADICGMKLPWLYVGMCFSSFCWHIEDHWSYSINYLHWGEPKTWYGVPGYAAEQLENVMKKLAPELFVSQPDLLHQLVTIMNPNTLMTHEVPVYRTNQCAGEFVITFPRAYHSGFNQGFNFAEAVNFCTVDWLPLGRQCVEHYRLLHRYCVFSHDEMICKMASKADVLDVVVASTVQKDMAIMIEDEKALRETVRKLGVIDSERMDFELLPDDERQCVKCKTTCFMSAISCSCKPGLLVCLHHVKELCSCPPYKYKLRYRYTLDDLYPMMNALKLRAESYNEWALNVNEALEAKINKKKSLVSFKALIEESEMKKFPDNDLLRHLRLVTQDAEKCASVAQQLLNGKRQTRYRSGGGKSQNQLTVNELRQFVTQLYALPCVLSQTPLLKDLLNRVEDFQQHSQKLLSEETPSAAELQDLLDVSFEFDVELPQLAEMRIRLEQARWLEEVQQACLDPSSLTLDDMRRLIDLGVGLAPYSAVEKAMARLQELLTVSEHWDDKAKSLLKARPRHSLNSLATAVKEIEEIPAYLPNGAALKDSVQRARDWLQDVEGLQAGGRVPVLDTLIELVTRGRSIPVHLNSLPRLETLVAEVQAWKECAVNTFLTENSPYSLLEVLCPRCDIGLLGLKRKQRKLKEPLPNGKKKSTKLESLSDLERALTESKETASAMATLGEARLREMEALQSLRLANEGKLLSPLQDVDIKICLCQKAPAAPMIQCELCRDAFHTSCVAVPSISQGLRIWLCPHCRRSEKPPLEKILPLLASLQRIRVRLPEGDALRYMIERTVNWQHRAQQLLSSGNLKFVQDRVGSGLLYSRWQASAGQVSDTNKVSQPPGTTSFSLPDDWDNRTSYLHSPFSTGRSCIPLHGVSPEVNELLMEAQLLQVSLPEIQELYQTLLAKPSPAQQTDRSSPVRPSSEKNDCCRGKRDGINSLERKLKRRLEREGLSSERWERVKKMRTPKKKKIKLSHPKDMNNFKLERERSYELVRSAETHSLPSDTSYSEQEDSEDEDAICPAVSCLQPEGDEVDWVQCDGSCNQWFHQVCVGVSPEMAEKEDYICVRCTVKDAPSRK
# runDescription: FLAG-JARID1B histone demethylase assay with AlphaScreen detection (HTS and dose response)
# Type: biochemical
# settings: high-throughput screen, compound 20 μM, standard demethylase conditions (10 μM α-KG, 50 μM Fe (II))
Give Inhibitory effect (percent) for every item shown.
Form entry: value (%) — number only.

Prompt line: Query for JARID1B (Homo sapiens, UniProt Q9UGL1): what Inhibitory effect (percent) does the record show for CC(C)=CCc1c2c(c3occ(-c4ccc(O)c(O)c4)c(=O)c3c1O)C=CC(C)(C)O2 [YU155407, POMIFERIN, reference compound] ?
Response line: 91.09

Prompt line: Query for JARID1B (Homo sapiens, UniProt Q9UGL1): what Inhibitory effect (percent) does the record show for O=c1c(O)c(-c2ccc(O)c(O)c2)oc2cc(O)cc(O)c12 [YU034090, QUERCETIN, reference compound] ?
Response line: 80.17

Prompt line: Query for JARID1B (Homo sapiens, UniProt Q9UGL1): what Inhibitory effect (percent) does the record show for O=C(O[C@@H]1Cc2c(O)cc(O)cc2O[C@@H]1c1cc(O)c(O)c(O)c1)c1cc(O)c(O)c(O)c1 [YU155090, EPIGALLOCATECHIN-3- MONOGALLATE, reference compound] ?
Response line: 98.42

###

# experimentalTarget: JARID1B (Homo sapiens, UniProt Q9UGL1)
# Construct: The FLAG tagged full length JARID1B enzyme was expressed in Sf21 insect cells using FLAG-JARID1B baculoviruses; FLAG (N); made in house; host or cells: Sf21 insect cells (baculovirus)
# runDescription: FLAG-JARID1B histone demethylase assay with AlphaScreen detection (HTS and dose response);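 further: FLAG-tagged JARID1B at 4 nM acting on a biotinylated H3K4me3 peptide, demethylation read by AlphaScreen luminescence, with hits checked against bio-H3K4me2 without enzyme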;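 on Assay Signal (percent): compound tested at 20 µM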
# Format: biochemical
# settings: validation of HTS actives; effect of compound in JARID1B AlphaScreen assay
Structures can show the parent of a compound that is named as a salt.
Criterion: Assay Signal (percent) strictly less than 50%. Met: met. Not met: not met.

Prompt line: Input CCOc1c(CNc2ccc(N3CCCC3)cc2)cccc1OC [YU153287] ; condition: Assay Signal (percent) strictly below 50%. Does it hold?
Response line: met

Prompt line: Input N#CC(=CC=Cc1ccco1)C(N)=S (single isomer, unassigned) [YU144893] ; condition: Assay Signal (percent) strictly below 50%. Does it hold?
Response line: not met

Prompt line: Input COC(=O)c1cccc(OCC(O)Cn2ccnc2)c1 (centres unmarked) [YU148087] ; condition: Assay Signal (percent) strictly below 50%. Does it hold?
Response line: met

Prompt line: Input Cc1ccc(-n2sc3ccccc3c2=O)cc1 [YU146026] ; condition: Assay Signal (percent) strictly below 50%. Does it hold?
Response line: not met

Prompt line: Input CC(C)NNC(=O)c1ccncc1 [YU034066, IPRONIAZID SULFATE, reference compound] ; condition: Assay Signal (percent) strictly below 50%. Does it hold?
Response line: not met

Prompt line: Input CC(=O)Oc1c([N+](=O)[O-])cc2c(c1Br)CCCC2 [YU151714] ; condition: Assay Signal (percent) strictly below 50%. Does it hold?
Response line: met

Prompt line: Input Cl.Oc1cc2c(cc1O)[C@H]1c3ccccc3CN[C@@H]1CC2 [YU221065, reference compound] ; condition: Assay Signal (percent) strictly below 50%. Does it hold?
Response line: not met

Prompt line: Input NNC(=O)c1ccncc1.Nc1ccc(C(=O)O)c(O)c1 [YU034557, PASINIAZID, reference compound] ; condition: Assay Signal (percent) strictly below 50%. Does it hold?
Response line: met

Prompt line: Input O=C(O)c1cc(NCc2cc(O)ccc2O)ccc1O [YU154859, reference compound] ; condition: Assay Signal (percent) strictly below 50%. Does it hold?
Response line: met

Prompt line: Input O=C(O)c1cc(O)c(O)c(O)c1 [YU155562, GALLIC ACID, reference compound] ; condition: Assay Signal (percent) strictly below 50%. Does it hold?
Response line: not met

Prompt line: Input O=c1c(O)c(-c2ccc(O)c(O)c2)oc2c(O)c(O)cc(O)c12 [YU155360, GOSSYPETIN, reference compound] ; condition: Assay Signal (percent) strictly below 50%. Does it hold?
Response line: not met

Prompt line: Input COc1ccc(-c2coc3cc(O)ccc3c2=O)c(O)c1O [YU155016, KOPARIN, reference compound] ; condition: Assay Signal (percent) strictly below 50%. Does it hold?
Response line: met

Prompt line: Input C=NC(C(=O)N[C@H]1C(=O)N2C1SC(C)(C)C2C(=O)O)c1ccccc1 (stereo in doubt) [YU034263, METAMPICILLIN SODIUM, reference compound] ; condition: Assay Signal (percent) strictly below 50%. Does it hold?
Response line: met

Prompt line: Input O=C1c2c(O)cccc2Cc2cccc(O)c21 [YU033694, ANTHRALIN, reference compound] ; condition: Assay Signal (percent) strictly below 50%. Does it hold?
Response line: met

Prompt line: Input Oc1cc(O)c2c(c1)O[C@H](c1cc(O)c(O)c(O)c1)[C@H](O)C2 [YU155087, EPIGALLOCATECHIN, reference compound] ; condition: Assay Signal (percent) strictly below 50%. Does it hold?
Response line: met

Prompt line: Input COc1ccc2nc(NCc3ccncc3)sc2c1 [YU147704] ; condition: Assay Signal (percent) strictly below 50%. Does it hold?
Response line: not met
